Test system: breast carcinoma MDA-MB-231 cells
Measurement Protocol: Cell adhesion assay, adherence to human vitronectin
Format: cell-based
Condition Summary: 45 min at 37° C., compared with vehicle treated control (FIG. 13)
Protocol: The cell adhesion assay was performed according to the procedure described in Deryugina, E. I., Ratnikov, B., Postnova, T. I., Rozanov, D. V., Strongin, A. Y. (2002) J. Biol. Chem. 277, 9749-9756. […] The stained cells were dissolved in 100 microliters (μL) of solubilizing buffer (1:1 mixture of 0.1M NaH2PO4 at a pH of 4.5 in 50% ethanol) and the absorbance of each of the resulting samples was read at 540 nm. […]
Measured Metric: inhibition of adherence of cancerous cells to vitronectin

compound="CCC=CCC=CCC=CCC=CCC=CCCCC(=O)Oc1c(C(C)C)cccc1C(C)C [EPA-propofol, 2,6-Diisopropylphenyl Eicosopentenoate]" val="inhibition of adherence"
compound="CC(C)c1cccc(C(C)C)c1O [propofol, 2,6-diisopropylphenol, reference compound]" val="not displayed"
compound="CC/C=C\\C/C=C\\C/C=C\\C/C=C\\C/C=C\\CCCC(=O)O [EPA, eicosopentenoic acid, reference compound]" val="not displayed"
compound="CCC=CCC=CCC=CCC=CCC=CCC=CCCC(=O)Oc1c(C(C)C)cccc1C(C)C [DHA-propofol, 2,6 Diisopropylphenyldocosa-Hexaenoate]" val="inhibition of adherence"
